target: hOT7T175 (Homo sapiens, UniProt Q969F8); construct: expressed in transfected cells; assay: Intracellular Ca ion level-increasing activity using FLIPR (180 seconds; specific activity to Metastin (1-54)); type: cell-based; settings: hOT7T175/CHO, change in intracellular calcium ion level for 180 seconds, Tables 21-23
Sequence (Q969F8 whole entry L364H): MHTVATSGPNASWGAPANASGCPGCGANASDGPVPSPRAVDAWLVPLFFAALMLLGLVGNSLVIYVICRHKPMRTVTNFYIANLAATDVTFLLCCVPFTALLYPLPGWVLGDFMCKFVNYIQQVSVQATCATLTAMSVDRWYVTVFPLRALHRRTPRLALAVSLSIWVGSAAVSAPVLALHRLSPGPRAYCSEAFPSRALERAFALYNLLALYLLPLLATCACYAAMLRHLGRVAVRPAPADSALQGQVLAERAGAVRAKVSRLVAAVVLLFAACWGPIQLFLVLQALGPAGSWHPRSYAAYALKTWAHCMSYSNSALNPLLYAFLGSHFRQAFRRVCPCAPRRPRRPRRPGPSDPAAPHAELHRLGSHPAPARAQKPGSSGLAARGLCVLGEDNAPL
measured property: intracellular Ca ion level-increasing activity [specific activity to Metastin (1-54)]
Answers are plain numbers.

Field: example entries. Status: answers known.
D-Tyr-D-Pya(4)-Asn-Ile-Phe-AzaGly-Leu-Arg(Me)-Trp-NH2 [Compound No. 498] :: 7
D-Tyr-D-Pya(4)-Asn-Trp-Phe-AzaGly-Leu-Arg(Me)-Trp-NH2 [Compound No. 491] :: 7
Dap-D-Tyr-Asn-Trp-Asn-Ser-Phe-Gly-Leu-Arg(Me)-Phe-NH2 [Compound No. 387] :: 1

Please turn your attention to the following entry.
Qu. Please report intracellular Ca ion level-increasing activity [specific activity to Metastin (1-54)] for the following substance: Acp-D-Tyr-D-Pya(4)-Asn-Ser-Phe-AzaGly-Leu-Arg(Me)-Phe-NH2 [Compound No. 504]
Ans. 2
